Listed molecules paired with reported pIC50
Molecular target: VLA-4 (Homo sapiens, UniProt P05556+P13612)
Construct: host or cells: Jurkat clone E6-1
Sequence (P13612 34-1032): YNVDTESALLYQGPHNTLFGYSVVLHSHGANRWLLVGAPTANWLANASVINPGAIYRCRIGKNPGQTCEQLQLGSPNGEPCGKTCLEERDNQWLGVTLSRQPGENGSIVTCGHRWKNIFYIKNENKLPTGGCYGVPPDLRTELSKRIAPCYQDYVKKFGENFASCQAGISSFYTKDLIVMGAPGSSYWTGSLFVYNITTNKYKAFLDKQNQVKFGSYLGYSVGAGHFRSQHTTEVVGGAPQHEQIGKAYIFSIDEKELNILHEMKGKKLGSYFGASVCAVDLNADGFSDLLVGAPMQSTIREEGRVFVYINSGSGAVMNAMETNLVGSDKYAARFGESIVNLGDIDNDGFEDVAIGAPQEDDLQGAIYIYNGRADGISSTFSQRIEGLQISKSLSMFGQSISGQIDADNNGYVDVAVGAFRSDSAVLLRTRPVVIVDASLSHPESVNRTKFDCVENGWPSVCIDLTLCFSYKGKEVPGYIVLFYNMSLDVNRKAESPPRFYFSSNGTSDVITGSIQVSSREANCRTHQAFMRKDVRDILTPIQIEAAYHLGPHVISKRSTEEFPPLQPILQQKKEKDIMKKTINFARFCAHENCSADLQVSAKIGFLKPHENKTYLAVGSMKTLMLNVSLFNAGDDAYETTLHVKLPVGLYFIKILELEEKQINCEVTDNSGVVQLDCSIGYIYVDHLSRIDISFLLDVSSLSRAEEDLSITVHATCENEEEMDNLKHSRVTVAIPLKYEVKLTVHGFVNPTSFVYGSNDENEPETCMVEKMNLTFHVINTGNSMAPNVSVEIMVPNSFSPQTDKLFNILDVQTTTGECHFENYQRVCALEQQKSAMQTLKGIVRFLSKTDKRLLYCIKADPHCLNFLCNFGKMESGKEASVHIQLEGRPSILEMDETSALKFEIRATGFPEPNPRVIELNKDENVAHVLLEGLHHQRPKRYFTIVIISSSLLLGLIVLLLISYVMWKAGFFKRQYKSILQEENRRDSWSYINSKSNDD
Sequence (P05556 21-798): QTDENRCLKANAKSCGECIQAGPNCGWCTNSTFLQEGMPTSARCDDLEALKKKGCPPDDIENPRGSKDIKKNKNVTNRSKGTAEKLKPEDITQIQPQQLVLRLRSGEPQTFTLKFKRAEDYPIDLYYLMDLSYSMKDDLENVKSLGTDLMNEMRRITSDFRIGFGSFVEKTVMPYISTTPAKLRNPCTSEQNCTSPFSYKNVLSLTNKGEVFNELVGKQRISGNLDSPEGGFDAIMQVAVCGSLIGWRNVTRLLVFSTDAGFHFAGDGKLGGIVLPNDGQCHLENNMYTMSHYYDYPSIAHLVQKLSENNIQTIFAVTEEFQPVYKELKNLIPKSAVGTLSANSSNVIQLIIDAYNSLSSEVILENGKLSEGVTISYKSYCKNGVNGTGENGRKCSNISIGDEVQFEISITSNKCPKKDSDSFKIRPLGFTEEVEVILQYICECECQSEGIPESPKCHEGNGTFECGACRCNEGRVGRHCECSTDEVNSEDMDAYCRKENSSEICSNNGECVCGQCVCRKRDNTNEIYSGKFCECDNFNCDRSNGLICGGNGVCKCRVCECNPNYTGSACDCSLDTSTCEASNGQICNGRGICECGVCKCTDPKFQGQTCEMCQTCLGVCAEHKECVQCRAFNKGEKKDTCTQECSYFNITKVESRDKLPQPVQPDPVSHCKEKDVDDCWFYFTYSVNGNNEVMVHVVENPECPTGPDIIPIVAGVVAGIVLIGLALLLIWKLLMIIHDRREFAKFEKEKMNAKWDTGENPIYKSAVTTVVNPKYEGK
Assay: Adhesion of Jurkat cells to immobilized VCAM-1 (domains 1-3)
Type: cell-based
Settings: adhesion of CFSE-labeled Jurkat cells to recombinant human VCAM-1 (domains 1-3) coated plates; compounds as yielded by solid phase synthesis, purity about 40-90%; read-out: IC50
pIC50: −log10 of the molar value.

# example entries with known answers
# molecule, experimental system, pIC50
data = [
    ("COc1ccccc1C(=O)N1CCCC(C(=O)N[C@@H](Cc2ccc(NC(=O)N3CCN(c4ccccc4)CC3)cc2)C(=O)O)C1 (some centres unmarked)", "VLA-4 (Homo sapiens, UniProt P05556+P13612)", "≥ 6.30"),
    ("O=C(N[C@@H](Cc1ccc(NC(=O)N2CCOCC2)cc1)C(=O)O)C1CCCN(c2ncnc(NCc3cccnc3)c2F)C1 (some centres unmarked)", "VLA-4 (Homo sapiens, UniProt P05556+P13612)", "5.70 to 6.30"),
    ("O=C(N[C@@H](Cc1ccc(NC(=O)N2CCN(c3ccccc3)CC2)cc1)C(=O)O)C1CCCN(c2ncnc(NCCc3ccccn3)c2F)C1 (some centres unmarked)", "VLA-4 (Homo sapiens, UniProt P05556+P13612)", "5.70 to 6.30"),
]

Task: State, in one line, measured pIC50 of Cc1ccc(S(=O)(=O)N2CCCC(C(=O)N[C@@H](Cc3ccc(NC(=O)N4CCN(c5ccccc5)CC4)cc3)C(=O)O)C2)cc1 (some centres unmarked)
Output: ≥ 6.30

Task: State, in one line, measured pIC50 of O=C(N[C@@H](Cc1ccc(-c2cc(Cl)ccc2Cl)cc1)C(=O)O)C1CCCN(c2ncnc(NC3CCCCC3)c2F)C1 (some centres unmarked)
Output: 5.00 to 5.70

Task: State, in one line, measured pIC50 of O=C(N[C@@H](Cc1ccc(NC(=O)N2CCc3ccccc3C2)cc1)C(=O)O)C1CCCN(S(=O)(=O)c2ccc3ccccc3c2)C1 (some centres unmarked)
Output: 5.00 to 5.70

Task: State, in one line, measured pIC50 of O=C(N[C@@H](Cc1ccc(NC(=O)N2CCOCC2)cc1)C(=O)O)C1CCCN(c2ncnc(N3CCCC3)c2F)C1 (some centres unmarked)
Output: 5.00 to 5.70

Task: State, in one line, measured pIC50 of Cc1ccc(S(=O)(=O)N2CCCC(C(=O)N[C@@H](Cc3ccc(-c4ccccc4)cc3)C(=O)O)C2)cc1 (some centres unmarked)
Output: 5.70 to 6.30
